// provenance: ChEMBL document CHEMBL1136459

A collection of molecules and their measured MIC
Test system: Haemophilus influenzae
Assay Summary: In vitro antibacterial activity against Haemophilia influenzae strains ATCC 30063 and ATCC 31517
Format: functional

State measured MIC of the molecule O=C(NC[C@H]1CN(c2ccc(N3CC[S+]([O-])CC3)c(F)c2)C(=O)O1)c1ccccc1 with Haemophilus influenzae.
> 64 µg/mL

State, for Haemophilus influenzae, measured MIC of the molecule listed here: COc1ccc(/C=C/C(=O)NC[C@H]2CN(c3ccc(N4CC[S+]([O-])CC4)c(F)c3)C(=O)O2)cc1
> 64 µg/mL

Please indicate recorded MIC of CC(C)CCC(=O)NC[C@H]1CN(c2ccc(N3CC[S+]([O-])CC3)c(F)c2)C(=O)O1 measured with Haemophilus influenzae.
> 64 µg/mL

Param request: MIC | system Haemophilus influenzae | item O=C(NC[C@H]1CN(c2ccc(N3CC[S+]([O-])CC3)c(F)c2)C(=O)O1)c1csnn1
64 µg/mL
